Here, each record is paired with measured log10 of IC50 data.
- Tested on: K562
- test.description: Cytotoxicity against human K562 cells assessed as inhibition of cell proliferation after 96 hrs by MTT assay
- Format: functional, cell-based
- details: K562, 96 h
value.type: log10 of IC50 (log10 of the value in µM)

1. CC(=O)O[C@H]1C(=O)[C@@]2(C)[C@H]([C@H](OC(=O)c3ccccc3)[C@]3(O)C[C@H](OC(=O)[C@H](O)[C@@H](NC(=O)c4ccccc4)c4ccccc4)C(C)=C1C3(C)C)[C@]1(OC(C)=O)CO[C@@H]1C[C@@H]2O : 0.10
2. Cc1cc(C)c(-c2csc(NC(=O)/C=C/c3ccncc3)n2)c(C)c1 : 0.97
3. Cc1cc(C)c(-c2csc(NC(=O)/C=C/c3ccc(Br)cc3)n2)c(C)c1 : 0.66
4. Cc1cc(C)c(-c2csc(NC(=O)/C=C/c3ccc(N4CCOCC4)cc3)n2)c(C)c1 : -0.21
5. Cc1ccc(-c2csc(NC(=O)/C=C/c3ccc(N4CCOCC4)cc3)n2)c(C)c1 : 0.73
6. O=C(/C=C/c1ccc(N2CCOCC2)cc1)Nc1nc(-c2c(F)cc(F)cc2F)cs1 : 0.71
7. COc1cc(/C=C/C(=O)Nc2nc(-c3c(C)cc(C)cc3C)cs2)cc(OC)c1OC : 1.07
8. Cc1cc(C)c(-c2csc(NC(=O)/C=C/c3ccc(C(C)(C)C)cc3)n2)c(C)c1 : -0.74
9. O=C(/C=C/c1ccc(N2CCOCC2)cc1)Nc1nc(-c2ccccc2)cs1 : 1.10
10. COc1cc(C)c(-c2csc(NC(=O)/C=C/c3ccc(N4CCOCC4)cc3)n2)c(C)c1 : 0.00
11. Cc1cc(C)c(-c2csc(NC(=O)/C=C/c3ccc(C4CC4)cc3)n2)c(C)c1 : -0.42
12. O=C(/C=C/c1ccc(N2CCOCC2)cc1)Nc1nc(-c2ccccc2F)cs1 : 0.62
13. COCCOc1ccc(/C=C/C(=O)Nc2nc(-c3c(C)cc(C)cc3C)cs2)cc1 : 0.17
14. Cc1cc(C)c(-c2csc(NC(=O)/C=C/c3ccc(N4CCCCC4)cc3)n2)c(C)c1 : 0.61
15. O=C(/C=C/c1ccc(N2CCOCC2)cc1)Nc1nc(-c2cccc(F)c2)cs1 : 0.76
16. Cc1cc(C)c(-c2csc(NC(=O)/C=C/c3ccccc3)n2)c(C)c1 : 1.61
17. Cc1cc(C)c(-c2csc(NC(=O)/C=C/c3ccc(Cl)c(C(F)(F)F)c3)n2)c(C)c1 : 0.49
18. Cc1cccc(-c2csc(NC(=O)/C=C/c3ccc(N4CCOCC4)cc3)n2)c1 : 0.88
19. COc1cc(F)c(-c2csc(NC(=O)/C=C/c3ccc(N4CCOCC4)cc3)n2)c(F)c1 : 1.48
20. Cc1ccc(/C=C/C(=O)Nc2nc(-c3c(C)cc(C)cc3C)cs2)cc1 : 0.90
21. Cc1ccccc1-c1csc(NC(=O)/C=C/c2ccc(N3CCOCC3)cc2)n1 : 0.57
22. COc1ccc(/C=C/C(=O)Nc2nc(-c3c(C)cc(C)cc3C)cs2)cc1 : 0.62
23. O=C(/C=C/c1ccc(N2CCOCC2)cc1)Nc1nc(-c2ccc(F)cc2)cs1 : 0.86
24. Cc1cc(C)c(-c2csc(NC(=O)/C=C/c3ccc(C(F)(F)F)cc3)n2)c(C)c1 : -0.32
25. COc1cccc(-c2csc(NC(=O)/C=C/c3ccc(N4CCOCC4)cc3)n2)c1 : 1.40
26. COc1ccc(-c2csc(NC(=O)/C=C/c3ccc(N4CCOCC4)cc3)n2)cc1 : 1.16
27. Cc1cc(C)c(-c2csc(NC(=O)/C=C/c3ccc([N+](=O)[O-])cc3)n2)c(C)c1 : 1.51
28. CCOc1ccc(/C=C/C(=O)Nc2nc(-c3c(C)cc(C)cc3C)cs2)cc1 : 0.39
29. CCOc1cc(C)c(-c2csc(NC(=O)/C=C/c3ccc(N4CCOCC4)cc3)n2)c(C)c1 : 0.32
30. Cc1cc(C)c(-c2csc(NC(=O)/C=C/c3ccc(F)cc3)n2)c(C)c1 : 1.15
